Task for the reader: assign each of the following molecules its reported inhibition at 50 µM.
test-target: Amine oxidase [flavin-containing] A (Homo sapiens)
Sequence (P21397 whole entry): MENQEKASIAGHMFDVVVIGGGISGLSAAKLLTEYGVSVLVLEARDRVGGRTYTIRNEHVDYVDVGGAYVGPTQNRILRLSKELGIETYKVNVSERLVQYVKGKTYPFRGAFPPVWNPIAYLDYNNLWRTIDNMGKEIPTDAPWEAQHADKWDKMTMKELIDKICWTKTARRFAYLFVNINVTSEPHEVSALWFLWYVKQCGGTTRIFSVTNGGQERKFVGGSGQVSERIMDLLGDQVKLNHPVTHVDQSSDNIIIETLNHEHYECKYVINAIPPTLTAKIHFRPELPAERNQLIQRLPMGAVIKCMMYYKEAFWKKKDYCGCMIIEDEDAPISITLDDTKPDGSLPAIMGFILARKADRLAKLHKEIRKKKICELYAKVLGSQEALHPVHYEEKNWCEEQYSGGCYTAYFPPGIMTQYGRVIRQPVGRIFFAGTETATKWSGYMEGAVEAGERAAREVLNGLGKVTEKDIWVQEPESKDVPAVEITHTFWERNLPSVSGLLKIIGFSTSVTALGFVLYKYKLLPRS
test-description: Inhibition of human recombinant microsomal MAO- A expressed in baculovirus infected BTI-TN-5B1- 4 cells assessed as reduction in production of H202 at 50 uM using p-tyramine as substrate incubated for 30 mins followed by substrate addition by horse radish peroxidase/Amplex red reagent based fluorescence assay
reported-conditions: 0.5 h

{"molecular-string": "C#CCOc1ccccc1-c1cc(-c2ccccc2OCC#C)nc(N)n1", "inhibition at 50 µM": "< 50%"}
{"molecular-string": "C#CCOc1ccc(-c2cc(-c3ccc(OCC#C)c(OC)c3)nc(N)n2)cc1", "inhibition at 50 µM": "< 50%"}

Query (molecule): "C#CCOc1cccc(-c2cc(-c3cccc(OCC#C)c3)nc(-c3ccccc3)n2)c1" ; field requested: inhibition at 50 µM
< 50%

* * *

test-target: Acetylcholinesterase (Electrophorus electricus, UniProt O42275)
Sequence (O42275 whole entry): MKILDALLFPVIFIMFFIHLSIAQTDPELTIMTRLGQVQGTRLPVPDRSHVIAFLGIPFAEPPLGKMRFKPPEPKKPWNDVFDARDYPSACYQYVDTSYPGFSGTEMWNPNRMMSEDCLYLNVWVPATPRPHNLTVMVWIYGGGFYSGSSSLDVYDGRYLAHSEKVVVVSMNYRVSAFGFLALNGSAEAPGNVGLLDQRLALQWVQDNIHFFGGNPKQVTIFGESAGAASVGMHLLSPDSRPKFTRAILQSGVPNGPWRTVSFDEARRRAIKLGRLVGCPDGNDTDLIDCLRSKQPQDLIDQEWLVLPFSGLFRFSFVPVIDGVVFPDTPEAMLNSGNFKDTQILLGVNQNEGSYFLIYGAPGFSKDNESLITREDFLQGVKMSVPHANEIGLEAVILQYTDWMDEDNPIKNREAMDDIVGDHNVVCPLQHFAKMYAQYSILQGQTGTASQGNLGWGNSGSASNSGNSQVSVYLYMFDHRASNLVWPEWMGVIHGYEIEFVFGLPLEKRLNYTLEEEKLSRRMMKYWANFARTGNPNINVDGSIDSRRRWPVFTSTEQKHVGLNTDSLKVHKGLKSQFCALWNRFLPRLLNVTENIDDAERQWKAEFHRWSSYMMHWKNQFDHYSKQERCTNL
test-description: Inhibition of electric eel AChE assessed as reduction in production of H202 using acetylcholine as substrate incubated for 15 mins followed by substrate addition by horse radish peroxidase/Amplex red reagent based fluorescence assay
Task for the reader: assign each of the following molecules its reported IC50.
One number for each entry, in µM.

{"molecular-string": "C#CCOc1ccc(-c2cc(-c3ccc(OCC#C)cc3)nc(-c3ccccc3)n2)cc1", "test-target": "Acetylcholinesterase (Electrophorus electricus, UniProt O42275)", "scale-unit": "µM", "IC50": 7.53}
{"molecular-string": "C#CCOc1ccc(-c2cc(-c3ccccc3OCC#C)nc(C)n2)cc1", "test-target": "Acetylcholinesterase (Electrophorus electricus, UniProt O42275)", "scale-unit": "µM", "IC50": 2.56}
{"molecular-string": "C#CCOc1ccc(-c2cc(-c3ccc(OCC#C)cc3)nc(N)n2)cc1", "test-target": "Acetylcholinesterase (Electrophorus electricus, UniProt O42275)", "scale-unit": "µM", "IC50": 1.35}
{"molecular-string": "C#CCOc1ccccc1-c1cc(-c2ccccc2OCC#C)nc(N)n1", "test-target": "Acetylcholinesterase (Electrophorus electricus, UniProt O42275)", "scale-unit": "µM", "IC50": 5.19}
{"molecular-string": "C#CCOc1ccc(-c2cc(-c3ccc(OCC#C)c(OC)c3)nc(N)n2)cc1", "test-target": "Acetylcholinesterase (Electrophorus electricus, UniProt O42275)", "scale-unit": "µM", "IC50": 4.58}

Provide the reported IC50 of each entry below, same order.
1. C#CCOc1ccc(-c2cc(-c3cccc(OCC#C)c3)nc(C)n2)cc1
2. C#CCOc1ccc(-c2cc(-c3ccc(OCC#C)c(OCC)c3)nc(C)n2)cc1
3. C#CCOc1ccccc1-c1cc(-c2ccccc2OCC#C)nc(-c2ccccc2)n1
4. C#CCOc1ccc(-c2cc(-c3ccc(OCC#C)c(OCC)c3)nc(N)n2)cc1
5. C#CCOc1ccc(-c2cc(-c3cccc(OCC#C)c3)nc(N)n2)cc1

[5.88, 6.38, 8.12, 7.05, 1.74]

* * *

Task for the reader: assign each of the following compounds its reported IC50.
test-target: UniProtKB P27338
Sequence (P27338 whole entry): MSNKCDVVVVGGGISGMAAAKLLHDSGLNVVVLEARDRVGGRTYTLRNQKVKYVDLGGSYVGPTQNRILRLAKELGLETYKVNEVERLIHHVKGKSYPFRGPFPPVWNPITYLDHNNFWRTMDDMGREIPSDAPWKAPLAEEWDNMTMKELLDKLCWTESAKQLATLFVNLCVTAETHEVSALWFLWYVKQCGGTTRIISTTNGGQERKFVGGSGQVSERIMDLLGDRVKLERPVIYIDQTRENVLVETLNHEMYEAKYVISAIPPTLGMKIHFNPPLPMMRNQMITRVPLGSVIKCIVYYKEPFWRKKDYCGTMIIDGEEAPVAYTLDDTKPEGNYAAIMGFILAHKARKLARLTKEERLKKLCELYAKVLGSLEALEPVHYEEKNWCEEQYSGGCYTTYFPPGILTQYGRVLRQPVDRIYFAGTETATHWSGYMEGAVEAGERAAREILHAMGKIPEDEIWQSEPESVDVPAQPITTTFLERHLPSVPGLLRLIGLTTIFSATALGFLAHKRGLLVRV
test-description: Inhibition of human recombinant microsomal MAO-B expressed in baculovirus infected BTI-TN-5B1-4 cells assessed as reduction in production of H202 using p-tyramine as substrate incubated for 30 mins followed by substrate addition by horse radish peroxidase/Amplex red reagent based fluorescence assay
Numbers only, in µM.

{"molecular-string": "C#CCOc1ccc(-c2cc(-c3ccc(OCC#C)cc3)nc(N)n2)cc1", "IC50 / µM": 3.3}
{"molecular-string": "C#CCOc1ccc(-c2cc(-c3ccccc3OCC#C)nc(N)n2)cc1", "IC50 / µM": 22.1}
{"molecular-string": "C#CCOc1ccc(-c2cc(-c3ccc(OCC#C)c(OC)c3)nc(N)n2)cc1", "IC50 / µM": 20}
{"molecular-string": "C#CCOc1ccc(-c2cc(-c3ccc(OCC#C)cc3)nc(-c3ccccc3)n2)cc1", "IC50 / µM": 12.3}

Query (compound): "C#CCOc1ccc(-c2cc(-c3cccc(OCC#C)c3)nc(C)n2)cc1" ; field requested: IC50
8.09

Cited source: ChEMBL document CHEMBL4350993
